- ASSAY_SYSTEM: T1, human PD-1 protein (human, UniProt Q15116 25-167, limits assumed)
- T1 construct: also called human PD-1 antigen
- T1 sequence (Q15116 25-167 limits assumed): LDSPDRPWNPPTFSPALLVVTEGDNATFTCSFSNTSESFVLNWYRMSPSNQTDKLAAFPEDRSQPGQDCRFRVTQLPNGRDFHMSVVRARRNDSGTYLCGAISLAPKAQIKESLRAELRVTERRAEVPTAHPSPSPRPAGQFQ
- ASSAY: SPR, binding kinetics to human PD-1
Overview of recorded Kd for various binders
# number only, unit nM dropped from output

Guide cases for Kd, answers given:
AHF16560 (antibody, V domains shown) VH: QVQLVQSGAEVKKPGASVKVSCKASGYTFTGYWMHWVRQAPGQGLEWIGMIHPNSDTTIYNEKFKNRVTMTRDTSISTAYMELSRLRSDDTAVYYCAGTDQEAWHGFWGQGTTVTVSS VL: DIVMTQTPLSLSVTPGQPASISCRSSQNIVRSQGDTYLEWYLQKPGQSPQLLIYKVSKRFSGVPDRFSGSGSGTDFTLKISRVEAEDVGVYYCFQGSHVPWTFGGGTKVEIK	0.331
AHF16556 (antibody, V domains shown) VH: QVQLVQSGAEVKKPGASVKVSCKASGYTFTGYWMHWVRQAPGQGLEWIGMIHPNSDTTVYNWKFKNRVTMTRDTSISTAYMELSRLRSDDTAVYYCAGTDQEAWAAFWGQGTTVTVSS VL: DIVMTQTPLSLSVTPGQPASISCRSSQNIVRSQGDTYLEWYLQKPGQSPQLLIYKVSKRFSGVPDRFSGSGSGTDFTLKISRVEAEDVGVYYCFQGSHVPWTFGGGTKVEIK	0.427
AHF16569 (antibody, V domains shown) VH: QVQLVQSGAEVKKPGASVKVSCKASGYTFTGYWMHWVRQAPGQGLEWIGMIHPNSDTTIYNWKFKNRVTMTRDTSISTAYMELSRLRSDDTAVYYCAGTDQEAWAAFWGQGTTVTVSS VL: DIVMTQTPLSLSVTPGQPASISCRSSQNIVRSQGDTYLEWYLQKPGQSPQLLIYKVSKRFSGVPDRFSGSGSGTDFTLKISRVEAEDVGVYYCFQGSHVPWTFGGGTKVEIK	0.339
AHF16558 (antibody, V domains shown) VH: QVQLVQSGAEVKKPGASVKVSCKASGYTFTGYWMHWVRQAPGQGLEWIGMIHPNSDTTTYNEKFKNRVTMTRDTSISTAYMELSRLRSDDTAVYYCAGTDQEAWHAFWGQGTTVTVSS VL: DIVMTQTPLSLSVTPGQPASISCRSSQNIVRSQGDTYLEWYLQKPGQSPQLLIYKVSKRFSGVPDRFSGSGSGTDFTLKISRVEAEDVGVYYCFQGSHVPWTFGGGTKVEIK	0.31

Let's switch to this binder now.
Asked: May I ask what Kd has been recorded for AHF16563 (antibody, V domains shown) VH: QVQLVQSGAEVKKPGASVKVSCKASGYTFTGYWMHWVRQAPGQGLEWIGMIHPNSDTTVYNWKFKNRVTMTRDTSISTAYMELSRLRSDDTAVYYCAGTDQEAWMGFWGQGTTVTVSS VL: DIVMTQTPLSLSVTPGQPASISCRSSQNIVHSQGDTYLEWYLQKPGQSPQLLIYKVSKRFSGVPDRFSGSGSGTDFTLKISRVEAEDVGVYYCFQGSHVPWTFGGGTKVEIK ?
Given back: 0.165
